Target under test: UniProtKB Q13133
Sequence (Q13133 209-447 limits assumed): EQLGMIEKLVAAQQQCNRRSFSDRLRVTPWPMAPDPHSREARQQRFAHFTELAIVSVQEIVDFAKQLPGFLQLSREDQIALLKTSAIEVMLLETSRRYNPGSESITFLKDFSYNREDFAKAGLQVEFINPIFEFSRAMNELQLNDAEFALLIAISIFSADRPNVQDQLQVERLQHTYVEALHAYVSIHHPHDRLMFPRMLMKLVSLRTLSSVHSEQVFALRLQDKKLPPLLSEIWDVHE
Method description: LXRα transactivation, luciferase reporter assay in HepG2 cells
Condition: dose-response 1-50 μM, mean ± SE, read-out: LXRα Affinity (EC50)
pEC50: −log10 of the molar value.
We use 5 as the dividing line for pEC50: on or above the line is Satisfied, below is Not satisfied.

Challenge: Would you say CCCCC(C)C1CCC2C3CC(O)C4CC(O)CCC4(C)C3CCC12C (stereo not shown) shows pEC50 at minimum 5?
Response given: Satisfied

Challenge: Does pEC50 meet or surpass 5 for CC(C)CCC(C)C1CCC2C3CC(O)C4CC(O)CCC4(C)C3CCC12C (stereo not shown) ?
Response given: Satisfied

Challenge: State whether the measured pEC50 reaches 5, counting equality as reaching it, for C=CCCC(C)C1CCC2C3CC(O)C4CC(O)CCC4(C)C3CCC12C (stereo not shown)
Response given: Satisfied

Challenge: I'd appreciate it if you could say whether CC(C)=CCCC(C)C1CCC2C3CC(O)C4CC(O)CCC4(C)C3CCC12C (stereo not shown) has pEC50 at least equal to 5.
Response given: Satisfied

Challenge: pEC50 >= 5 for CC(C)=CCC(C)C1CCC2C3CC(O)C4CC(O)CCC4(C)C3CCC12C (stereo not shown) ?
Response given: Not satisfied

Entry source: paper PMC5324103
